For each of the molecules below, state its solubility kinetic.
# applied-conditions: buffer; pH 7.4; 200.0 µM

Item: Cc1ccc(C(=O)NCC(=O)Nc2ccncc2)s1 | solubility kinetic: > 41.3 µg/mL

Item: COc1cc(S(=O)(=O)Nc2cccnc2)ccc1Cl | solubility kinetic: > 44.8 µg/mL

Item: CCC(=O)N1C(=O)C2(Nc3ccccc3N2)c2ccccc21 | solubility kinetic: > 44 µg/mL

Item: Cc1ccc(C(=O)c2ccccc2C(=O)OCC(=O)N2CCCC2)cc1 | solubility kinetic: > 52.7 µg/mL

Item: CC(C)[C@H](NS(=O)(=O)c1ccccc1F)C(=O)OCC(=O)Nc1cccc(S(N)(=O)=O)c1 | solubility kinetic: > 73.1 µg/mL

Item: CC(=O)N/C(=C\c1ccc2c(c1)OCO2)C(=O)NC(C(=O)O)c1ccccc1 (centres undefined) | solubility kinetic: > 57.4 µg/mL

Item: Cc1cc(NS(=O)(=O)c2c(C)c(C)cc(C)c2C)no1 | solubility kinetic: > 44.2 µg/mL

Item: Cc1ccc(OCC(=O)N2CC(C)CC(C)C2)c([N+](=O)[O-])n1 (centres undefined) | solubility kinetic: > 46.1 µg/mL

Item: O=C(NC1=NCCS1)c1cccc(F)c1 | solubility kinetic: > 33.6 µg/mL

Item: O=C(OCC(=O)c1ccccc1Br)c1ccncc1 | solubility kinetic: > 48 µg/mL

Item: CC1(C)NC(=O)N(CC(=O)OCC(=O)c2ccc(Cl)s2)C1=O | solubility kinetic: > 51.7 µg/mL

Item: Cc1cc(NC(=O)CSc2nncn2-c2ccccc2)no1 | solubility kinetic: > 47.3 µg/mL

Item: COc1cc(OC)c(OC)cc1CN1CCC(O)CC1.Cl | solubility kinetic: > 47.7 µg/mL

Item: CC(C)=Cc1oc2ccc([N+](=O)[O-])cc2c1N1CCOCC1 | solubility kinetic: < 0.3 µg/mL
